- target-entity: Ubiquitin carboxyl-terminal hydrolase 8 (Homo sapiens) (UniProt P40818)
- Sequence (P40818 whole entry, looked up): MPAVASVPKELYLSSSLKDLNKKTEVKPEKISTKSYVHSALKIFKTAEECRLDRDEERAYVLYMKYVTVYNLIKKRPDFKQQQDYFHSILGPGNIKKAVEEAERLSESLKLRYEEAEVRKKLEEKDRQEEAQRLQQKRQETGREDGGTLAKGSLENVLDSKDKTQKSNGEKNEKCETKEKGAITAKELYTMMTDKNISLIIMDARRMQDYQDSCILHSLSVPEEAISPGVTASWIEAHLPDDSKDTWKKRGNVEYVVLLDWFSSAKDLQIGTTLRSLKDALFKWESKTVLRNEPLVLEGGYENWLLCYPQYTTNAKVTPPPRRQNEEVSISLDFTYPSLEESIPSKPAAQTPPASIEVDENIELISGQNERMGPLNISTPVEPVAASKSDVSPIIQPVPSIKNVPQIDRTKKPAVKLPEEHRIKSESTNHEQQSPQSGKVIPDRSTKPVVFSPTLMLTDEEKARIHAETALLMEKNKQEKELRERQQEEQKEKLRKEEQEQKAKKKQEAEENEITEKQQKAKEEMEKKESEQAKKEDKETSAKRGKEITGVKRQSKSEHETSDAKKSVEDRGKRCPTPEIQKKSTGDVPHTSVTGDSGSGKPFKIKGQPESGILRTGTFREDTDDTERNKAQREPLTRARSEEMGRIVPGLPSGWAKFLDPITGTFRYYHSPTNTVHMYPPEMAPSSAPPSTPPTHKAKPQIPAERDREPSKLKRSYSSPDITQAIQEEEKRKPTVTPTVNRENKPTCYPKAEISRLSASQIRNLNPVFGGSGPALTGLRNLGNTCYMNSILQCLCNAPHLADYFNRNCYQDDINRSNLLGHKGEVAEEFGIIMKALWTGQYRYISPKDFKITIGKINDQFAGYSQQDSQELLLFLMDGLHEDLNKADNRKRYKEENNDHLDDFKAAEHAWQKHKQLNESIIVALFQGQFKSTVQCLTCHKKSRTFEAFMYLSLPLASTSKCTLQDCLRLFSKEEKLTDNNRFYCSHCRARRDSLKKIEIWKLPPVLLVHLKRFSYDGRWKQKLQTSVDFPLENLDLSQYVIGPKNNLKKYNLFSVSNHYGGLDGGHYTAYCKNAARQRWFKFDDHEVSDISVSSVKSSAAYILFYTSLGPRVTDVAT
- test-method-notes: Ubiquitin-specific protease 8 inhibitors, concentration-effect, biochemical, validation of initial actives (AID 1645862);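 note: potency reflects inhibition of USP8 cleavage of a ubiquitin rhodamine substrate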
- stated-conditions: recombinant USP8 deubiquitinase activity assay
The source made the active and inactive calls. The rule behind the calls is not given here.
A correct response names exactly one class from yes (1) for active, no (0) for inactive

The following compounds have reported results that may help.
{"columns": ["compound", "class-assignment"],
 "data": [
  ["Cc1ccc(NC(=O)Nc2nnc(CC(=O)NCc3ccccc3)s2)cc1F", "no (0)"],
  ["CN1c2ccccc2C(=O)NC12CCN(C(=O)NCc1ccccc1)CC2", "no (0)"]
]}

In: Status in this test for "Nc1c(-c2nc(-c3ccccc3Cl)no2)nnn1-c1ccc(Cl)cc1" ?
Out: yes (1)

In: Queued: "O=C(NC1CCCCCC1)c1cccc(S(=O)(=O)Nc2cc(C(F)(F)F)ccc2Cl)c1"
Out: no (0)

In: Queued: "CC1=C(Cn2c3cccc(=O)c-3nc3ccccc32)CCC(C)(C)C1"
Out: yes (1)

In: Queued: "CSc1cccc(C(=O)Nc2ccc(-c3nc4ccccc4[nH]3)cc2)c1"
Out: no (0)

====

- target-entity: Ubiquitin carboxyl-terminal hydrolase 8 (Homo sapiens)
- test-method-notes: Ubiquitin-specific protease 8 inhibitors, concentration-effect, biochemical, validation of initial actives (AID 1645862);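 note: potency reflects inhibition of USP8 cleavage of a ubiquitin rhodamine substrate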
- stated-conditions: recombinant USP8 deubiquitinase activity assay
Active and inactive are the calls of the source. The rule behind the calls is not given here.
A correct response names exactly one class from active, inactive

The following compounds have reported results that may help.
{"columns": ["compound", "target-entity", "class-assignment"],
 "data": [
  ["O=C(NCC1(c2ccccc2)CCC1)c1nc2n(n1)-c1ccccc1S(=O)(=O)N2", "Ubiquitin carboxyl-terminal hydrolase 8 (Homo sapiens)", "inactive"],
  ["CCCCCCCCC/C=C/C(=O)CCc1c(O)c(C=O)c2c(c1O)C(=O)OC2O (stereo not given)", "Ubiquitin carboxyl-terminal hydrolase 8 (Homo sapiens)", "active"],
  ["Cc1cccc(NC(=O)CNC(=O)c2ccc(-c3noc(C4CCCC4)n3)cc2)c1C", "Ubiquitin carboxyl-terminal hydrolase 8 (Homo sapiens)", "inactive"]
]}

In: Status in this test for "COc1ccc(NC(=O)CNC(=O)c2ccc3nc(-n4cccc4)sc3c2)cc1" ?
Out: inactive

====

- target-entity: Ubiquitin carboxyl-terminal hydrolase 8 (Homo sapiens)
- test-method-notes: Ubiquitin-specific protease 8 inhibitors, concentration-effect, biochemical, validation of initial actives (AID 1645862);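 note: potency reflects inhibition of USP8 cleavage of a ubiquitin rhodamine substrate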
- stated-conditions: recombinant USP8 deubiquitinase activity assay
Calls of active or inactive are those of the source. How the calls were made is not given here.
A correct response names exactly one class from y (active), n (inactive)

In: Status in this test for "COc1ccc(-c2cc(-c3ccc(F)cc3)[nH]c(=O)c2C#N)cc1" ?
Out: n

In: Queued: "Cc1ccccc1NC(=O)Cn1ccc2ccn(Cc3ccccc3)c2c1=O"
Out: n

In: Queued: O=C(COc1ccc(N2CC(C(=O)NCc3ccc4c(c3)OCO4)CC2=O)cc1)Nc1ccc(F)cc1 (centres undefined)
Out: n

In: Queued: "CC(C)(C)C(=O)[C@@H]1[C@@H](C(=O)c2ccc3c(c2)OCO3)[C@@]2(C(=O)Nc3ccccc32)[C@H]2c3ccccc3C=CN12"
Out: y

In: Queued: COc1ccc(CCC(=O)Nc2nnc(C3CC(=O)N(c4ccccc4)C3)s2)cc1 (centres undefined)
Out: n

In: Queued: "Nc1c(C(=O)NCc2ccc3c(c2)OCO3)nnn1Cc1ccc(Br)cc1F"
Out: n

In: Queued: "Cc1cc(O)c2c3c(c(O)cc2c1)C(=O)c1c(O)cccc1C3=O"
Out: y

In: Queued: "Cn1c2ccccc2c(=O)c2c(=O)n(Cc3ccco3)c(-c3ccccc3F)nc21"
Out: y

In: Queued: "COc1ccc(-c2onc(C)c2C)cc1S(=O)(=O)NCc1ccc(F)cc1"
Out: n

In: Queued: "Oc1cccc2c(-c3ccc(O)c4c(O)cccc34)ccc(O)c12"
Out: n

In: Queued: "COc1cc(Cl)c(NC(=O)c2cc(-c3ccccn3)n[nH]2)c(OC)c1"
Out: n

In: Queued: O=C(COC(=O)C(Cc1c[nH]c2ccccc12)NC(=O)c1ccccc1Cl)Nc1ccc([N+](=O)[O-])cc1C(F)(F)F (centres undefined)
Out: n

In: Queued: COc1ccc(/C=C/C(=O)Nc2nc3n(n2)C(c2ccccc2)CC(=O)N3)cc1 (centres undefined)
Out: n

In: Queued: "CCCC[C@@H](C)/C=C(C)/C=C(\C)C(=O)NC1=C[C@](O)(/C=C/C=C/C=C/C(=O)NC2=C(O)CCC2=O)[C@@H]2O[C@@H]2C1=O"
Out: n

In: Queued: "CCCN1CCN(C(=O)Cn2c(C)ccc(NC(=O)c3ccccc3)c2=O)CC1"
Out: n

In: Queued: "Cc1cc(C)c(NC(=O)Cn2c(SCc3cccc(F)c3)nc3cccnc32)c(C)c1"
Out: n

In: Queued: "O=C(CCCn1c(=O)c2sccc2n(CC(=O)NCCC2=CCCCC2)c1=O)NCc1ccc2c(c1)OCO2"
Out: n

In: Queued: "O=c1c2ccccc2nc(/C=C/c2ccco2)n1Cc1ccccc1"
Out: n

In: Queued: "CCOc1ccc(-c2nc(SCC(=O)Nc3cccc(C)c3)n3[nH]c(=O)cc3n2)cc1"
Out: n
